- Assay remarks: coupled detection enzyme interference, dose response, artefact control for MgcRacGAP inhibitor project, biochemical, coupled enzyme counter-screen (AID 624351);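 note: signal is the ADP detection kit reading of free GDP without any GAP enzyme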
- Experimental conditions: ADP Hunter coupled enzyme counter-screen, fluorescence, no MgcRacGAP; series mostly up to 80 µM
Hit rate of the full screen: of about 2,400 compounds, about 1,400 (58%) were called active. The set was probably picked from earlier hits. This is one part of the list.
Experimental readout: IC50

{"Molecule": "S=c1[nH]cc2cnccn12", "Endpoint value": "72.1 µM (active)"}
{"Molecule": "O=C(Nc1ccccn1)c1ccc2ccccc2c1O", "Endpoint value": "78.1 µM (active)"}
{"Molecule": "Cc1nc(N)sc1-c1ccccc1", "Endpoint value": "80.8 µM (active)"}
{"Molecule": "CN1C=CC=C/C1=C(\\C#N)c1nc2ccccc2[nH]1", "Endpoint value": "52.5 µM (active)"}

Let's switch to this molecule now.
## Input For the molecule `COc1ccc(-c2cn[nH]c2-c2ccc(O)cc2O)cc1` , what IC50 is on record?
## Output 47.9 µM (active)

---

- Assay remarks: coupled detection enzyme interference, dose response, artefact control for MgcRacGAP inhibitor project, biochemical, coupled enzyme counter-screen (AID 624351);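 note: signal is the ADP detection kit reading of free GDP without any GAP enzyme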
- Experimental conditions: ADP Hunter coupled enzyme counter-screen, fluorescence, no MgcRacGAP; series mostly up to 80 µM
Screen size: about 2,400 compounds; about 1,400 (58%) were called active.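 The calls were made as follows: active = inhibition of 30% or more at any tested dose; inconclusive = primary hits over the limit that were never retested; inactive = the rest.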 So high a share suggests a set chosen from earlier hits. This is one part of the list.
Pick from active, inactive when you respond.

Answered cases to consult:
{"Molecule": "O=C1NC2c3c(I)sc(I)c3C(=O)C2O1 (stereo not given)", "Label value": "inactive"}
{"Molecule": "CC1(C)OC(=O)C(=NNc2ccc(O)cc2)C(=O)O1", "Label value": "active"}
{"Molecule": "O=c1[nH]c(/C=C\\c2ccc(O)cc2)nc(O)c1[N+](=O)[O-]", "Label value": "active"}
{"Molecule": "O=C(O)c1cccc(N2C(=O)/C(=C/c3ccc(SCc4ccc(Cl)cc4)o3)SC2=S)c1", "Label value": "inactive"}

## Input What did this assay record as the result for `CCn1c(=O)c2c3c(sc2n2c(=S)[nH]nc12)CCC3` ?
## Output active

---

- Assay remarks: coupled detection enzyme interference, dose response, artefact control for MgcRacGAP inhibitor project, biochemical, coupled enzyme counter-screen (AID 624351);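 note: signal is the ADP detection kit reading of free GDP without any GAP enzyme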
- Experimental conditions: ADP Hunter coupled enzyme counter-screen, fluorescence, no MgcRacGAP; series mostly up to 80 µM
Hit rate of the full screen: of about 2,400 compounds, about 1,400 (58%) were called active.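 How the source made its calls: active means inhibition of 30% or more at any tested dose; inconclusive means primary hits over the limit that were never retested; inactive means the rest.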 So high a share suggests a set chosen from earlier hits. The list shows a part of the results.
Pick from T = active, F = inactive when you respond.

Answered cases to consult:
{"Compound structure string": "COc1ccc(CN2CCN(Cc3ccc(Br)cc3)CC2)c(OC)c1OC", "Label value": "F"}
{"Compound structure string": "C/C(CC(=O)Nc1ccc(N(C)C)cc1)=N\\NC(=O)c1ccncc1", "Label value": "T"}
{"Compound structure string": "Brc1ccc(OCCCN2CCOCC2)cc1", "Label value": "F"}
{"Compound structure string": "O=[N+]([O-])c1cc([N+](=O)[O-])c2nonc2c1Nc1ccc(O)cc1", "Label value": "T"}

## Input What did this assay record as the result for `Cc1ccc2nc(/C(C#N)=C/c3ccc(O)c(O)c3)[nH]c2c1` ?
## Output T
